# credit: patent US20120270929A1

Please provide measured percent inhibition of TTC39C mRNA for the entries that follow.
- Test system: murine TTC39C mRNA
- assaySummary: Dose-dependent antisense inhibition of murine TTC39C in mouse primary hepatocytes
- Type: cell-based
- reportedConditions: 8000.0 nM, electroporation, ~16 h
Oligonucleotides are written 5' to 3', each unit as a sugar letter and its base; * is a phosphorothioate linkage, no mark a phosphodiester; rarer units and linkages stand in square brackets, end groups in braces. Plain capitals give the bases only. e = 2'-O-(2-methoxyethyl) (MOE); [5mC] = 5-methylcytosine; d = 2'-deoxy (DNA)
Reply numerically in %, unit not repeated.

IN: For the substance shown here, ISIS 474596: 5-10-5 MOE gapmer antisense oligonucleotide targeting murine TTC39C (antisense e[5mC]*eG*eA*eT*eT*dA*d[5mC]*dA*d[5mC]*d[5mC]*dA*dG*d[5mC]*d[5mC]*dT*e[5mC]*eT*eT*e[5mC]*eA) , give the reported percent inhibition of TTC39C mRNA.
OUT: 96

IN: For the substance shown here, ISIS 474535: 5-10-5 MOE gapmer antisense oligonucleotide targeting murine TTC39C (antisense eT*e[5mC]*e[5mC]*eA*e[5mC]*dT*dT*d[5mC]*dA*dT*dG*dG*d[5mC]*dA*dA*eG*e[5mC]*eT*eT*eG) , give the reported percent inhibition of TTC39C mRNA.
OUT: 93

IN: For the substance shown here, ISIS 474662: 5-10-5 MOE gapmer antisense oligonucleotide targeting murine TTC39C (antisense eG*eG*eA*eT*eT*dT*d[5mC]*d[5mC]*dG*dG*dG*d[5mC]*dA*dT*d[5mC]*eA*eA*e[5mC]*e[5mC]*eT) , give the reported percent inhibition of TTC39C mRNA.
OUT: 94

IN: For the substance shown here, ISIS 474595: 5-10-5 MOE gapmer antisense oligonucleotide targeting murine TTC39C (antisense eG*eT*e[5mC]*eA*eT*d[5mC]*dG*d[5mC]*dA*d[5mC]*dG*d[5mC]*d[5mC]*dA*dA*e[5mC]*eT*eG*e[5mC]*eA) , give the reported percent inhibition of TTC39C mRNA.
OUT: 98
